# Test system: IL-4
# protocol_notes: Serum IL-4 ELISA, cedar pollinosis mice
# Assay type: in vivo, mouse
# condition_info: serum day 28, oral 10 mg/kg (dexamethasone 2 mg/kg), control 55, vehicle 374
The following molecules are shown together with reported amount of IL-4 values.

| molecule | subject_of_test | unit_tag | amount of IL-4 |
| --- | --- | --- | --- |
| CN(C)CC/C=C1/c2ccccc2COc2ccc(CC(=O)O)cc21 | IL-4 | pg/mL | 263 |
| C[C@@H]1C[C@H]2[C@@H]3CCC4=CC(=O)C=C[C@]4(C)[C@@]3(F)[C@@H](O)C[C@]2(C)[C@@]1(O)C(=O)CO | IL-4 | pg/mL | 78 |
| C[C@@H]1CCN(C(=O)CC#N)C[C@@H]1N(C)c1ncnc2[nH]ccc12 | IL-4 | pg/mL | 213 |
| O=c1c2cc(O)c(O)cc2oc2cc(O)cc(O)c12 [norathyriol, 1,3,6,7-tetrahydroxyxanthone] | IL-4 | pg/mL | 111 |

----------
# Tested on: IL-4
# protocol_notes: Serum IL-4 ELISA, allergic rhinitis mice
# Assay type: in vivo, mouse
# condition_info: OVA allergic rhinitis; serum day 28; oral 10 mg/kg (dexamethasone 2 mg/kg); control 227, vehicle 872
The following compounds are shown together with reported amount of IL-4 values.

| compound | unit_tag | amount of IL-4 |
| --- | --- | --- |
| C[C@@H]1CCN(C(=O)CC#N)C[C@@H]1N(C)c1ncnc2[nH]ccc12 | pg/mL | 808 |
| C[C@@H]1C[C@H]2[C@@H]3CCC4=CC(=O)C=C[C@]4(C)[C@@]3(F)[C@@H](O)C[C@]2(C)[C@@]1(O)C(=O)CO | pg/mL | 336 |
| O=c1c2cc(O)c(O)cc2oc2cc(O)cc(O)c12 [norathyriol, 1,3,6,7-tetrahydroxyxanthone] | pg/mL | 495 |
| CN(C)CC/C=C1/c2ccccc2COc2ccc(CC(=O)O)cc21 | pg/mL | 717 |

----------
The following compounds are shown together with reported population IgM positive and IgD negative (immature B cells) values.
# Test system: B cells collected from mice
# protocol_notes: BAFF-induced differentiation into mature B cells (IgM/IgD flow cytometry)
# Format: cell-based, mouse
# condition_info: 100 ng/mL BAFF, 10 days; 100 μM mangiferin, 20 μM 1,3,5,6-tetrahydroxyxanthone, 10 μM others; control 0.529, BAFF only 42.3
measured_endpoint: population IgM positive and IgD negative (immature B cells)

| compound | endpoint_result |
| --- | --- |
| O=c1c2cc(O)c(O)cc2oc2cc(O)cc(O)c12 [norathyriol, 1,3,6,7-tetrahydroxyxanthone] | 1.46% |
| O=c1c2cc(O)c(O)cc2oc2cc(O)c([C@@H]3O[C@H](CO)[C@@H](O)[C@H](O)[C@H]3O)c(O)c12 | 3.24% |
| OC1c2ccccc2Oc2ccccc21 [xanthohydrol] | 3.64% |
| CC(C)=CCc1c(O)cc2oc3cc(O)c(O)c(CC=C(C)C)c3c(=O)c2c1O | 19.7% |
| COc1c(O)cc2oc3cc(O)c(CC=C(C)C)c(O)c3c(=O)c2c1CC=C(C)C | 21.2% |
| O=c1c2ccc(O)c(O)c2oc2cc(O)cc(O)c12 [1,3,5,6-tetrahydroxyxanthone] | 2.92% |
